Ref: patent US20250034170A1

Entries and their measured pEC50 follow.
# tested-target: GCase (Homo sapiens)
# Construct: endogenous in cells; host or cells: HeLa cells
# assay-remarks: activation of GCase in a live cell PFB assay in HELA cells
# Assay type: cell-based
# condition-details: EC50 given as range classes
pEC50: −log10 of the molar value.

O=C1CC2(CCN(c3cnc4cnn(CC(F)F)c4n3)C2)CCN1c1cncc(C(F)(F)F)c1 (centres unmarked) | > 5.00
FC(F)Cn1ncc2ncc(NC3CCC4(CC3)CN(c3cncc(C(F)(F)F)c3)C4)nc21 | > 5.00
Cc1nc(N2CC3(CCN(c4ccc5cnn(CC(F)F)c5n4)C3)C2)cc(C(F)(F)F)n1 | 4.30 to 5.00
FC(F)Cn1ncc2ncc(N3CCC4(CC3)CN(c3ccc(C(F)(F)F)nc3)CCO4)nc21 | > 5.00
Cc1nc(N2CC3(CCN(c4cc5c(cn4)cnn5CC(F)F)CC3)C2)cc(C(F)(F)F)n1 | > 5.00

// recorded pEC50 for `FC(F)Cn1ncc2ncc(N3CCOC4(CCN(c5cncc(C(F)(F)F)c5)CC4)C3)nc21` : > 5.00

// recorded pEC50 for O=C1N(c2ccc(C(F)(F)F)nc2)CCC12CC1CCC(C2)N1c1cnc2cnn(CC(F)F)c2n1 (centres unmarked) : > 5.00

// recorded pEC50 for `Fc1cc(Cl)cnc1N1CC2(CCN(c3cnc4cnn(CC(F)F)c4n3)C2)C1` : 4.30 to 5.00

---

# tested-target: GCase (Homo sapiens)
# Construct: endogenous in cells; host or cells: HeLa cells
# Sequence (P04062 40-536): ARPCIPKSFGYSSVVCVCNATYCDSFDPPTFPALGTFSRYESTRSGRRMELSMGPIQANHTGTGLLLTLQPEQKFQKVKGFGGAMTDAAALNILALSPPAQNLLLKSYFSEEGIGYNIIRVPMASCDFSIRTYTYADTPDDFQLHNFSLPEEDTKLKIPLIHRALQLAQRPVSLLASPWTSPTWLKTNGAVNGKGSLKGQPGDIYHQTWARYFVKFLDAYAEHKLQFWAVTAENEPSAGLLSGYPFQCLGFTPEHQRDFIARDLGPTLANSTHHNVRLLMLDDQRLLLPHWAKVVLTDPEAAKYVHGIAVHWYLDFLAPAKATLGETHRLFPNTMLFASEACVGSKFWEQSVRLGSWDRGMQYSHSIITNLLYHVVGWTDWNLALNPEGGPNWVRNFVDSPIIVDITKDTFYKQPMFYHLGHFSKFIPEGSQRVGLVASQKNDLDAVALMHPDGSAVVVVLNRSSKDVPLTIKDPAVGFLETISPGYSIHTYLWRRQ
# assay-remarks: activation of GCase in a live cell PFB assay in HELA cells
# Format: cell-based
# condition-details: EC50 given as range classes
pEC50: −log10 of the molar value.
Entries and their measured pEC50 follow.

Below are worked cases with known answers.
Cc1nn(CC(F)(F)F)c2nc(N3CCC4(CCN(c5cnc(C(F)(F)F)nc5)C4)C3)cnc12 (centres unmarked) [Cmpd 603] | 4.30 to 5.00
Cc1nc(N2CC3(CCN(c4cc5c(cn4)c(C)nn5CC(F)F)CC3)C2)cc(C(F)(F)F)n1 [Cmpd 613] | > 5.00
FC(F)(F)c1cc(N2CC3(CCN(c4cnc5cnn(C6COC6)c5n4)C3)C2)ccn1 [Cmpd 987] | < 4.00

// recorded pEC50 for FC(F)(F)c1ncc(N2CC3(CCN(c4cnc5cnn(C6COC6)c5n4)C3)C2)cn1 [Cmpd 427] : 4.30 to 5.00

// recorded pEC50 for O=C1N(c2cnc3cnn(CC(F)F)c3n2)CCC12CN(c1cnc(C(F)(F)F)nc1)C2 [Cmpd 1012] : 4.30 to 5.00

// recorded pEC50 for CCOCCN1C(=O)N(c2cc(C(F)(F)F)ccn2)C(=O)C12CCN(c1cnc3cnn(CC(F)F)c3n1)CC2 [Cmpd 822] : < 4.00

// recorded pEC50 for FC(F)Cn1ncc2ncc(N3CCC4(CCN(c5cc(C(F)(F)F)ccn5)CC4)CC3)nc21 [Cmpd 811] : > 5.00

// recorded pEC50 for FC(F)Cn1ncc2ncc(N3CCCC4(CCN(c5ccc(C(F)(F)F)nc5)CC4)C3)nc21 [Cmpd 220] : > 5.00

---

# tested-target: GCase (Homo sapiens)
# Construct: endogenous in cells; host or cells: HeLa cells
# assay-remarks: activation of GCase in a live cell PFB assay in HELA cells
# Format: cell-based
# condition-details: activation of GCase, EC50 ranges
Entries and their measured EC50 follow.

Below are worked cases with known answers.
FC(F)Cn1ncc2ncc(N3CCC4(C3)CN(c3ncc(Cl)cn3)C4)nc21 | 10 to 50 µM
O=C1N(c2cnc3cnn(CC(F)F)c3n2)CCCC12CN(c1ccc(C(F)(F)F)nc1)C2 | > 100 µM

// recorded EC50 for Cc1nn(CC(F)F)c2nc(N3CCC4(CC(=O)N(c5ccnc(C(F)(F)F)c5)C4)C3)ncc12 (centres unmarked) : 10 to 50 µM

// recorded EC50 for `O=C1N(c2cnc3cnn(CC(F)F)c3n2)CCC12CCN(c1ccc(C(F)(F)F)nc1)CC2` : < 10 µM

// recorded EC50 for FC(F)Cn1ncc2ncc(N3CCC4(CCCN(c5cccnc5C(F)(F)F)C4)C3)nc21 (centres unmarked) : < 10 µM

// recorded EC50 for `FC(F)(F)c1ccc(N2CCC3(CCN(c4cncc(-n5ccnc5)n4)CC3)C2)cn1` : 10 to 50 µM

---

# tested-target: GCase (Homo sapiens, UniProt P04062)
# Construct: endogenous in cells; host or cells: HeLa cells
# assay-remarks: activation of GCase in a live cell PFB assay in HELA cells
# Assay type: cell-based
# condition-details: EC50 given as range classes
measurement-type: EC50

Below are worked cases with known answers.
FC(F)Cn1ncc2ncc(N3CC4(CCN(c5ccc(C(F)(F)F)nc5)C4)C3)nc21 | 50 to 100 µM
Cc1nn(CC(F)F)c2nc(N3CCC4(CCN(c5cnc(C(F)(F)F)nc5)C4)CC3)cnc12 | < 10 µM
FC(F)Cn1ncc2ncc(NC3CCC4(CCN(c5ccc(C(F)(F)F)nc5)C4)C3)nc21 (stereo not shown) | 10 to 50 µM
FC(F)Cn1ncc2ncc(N3CCC4(CC3)CC(Nc3cncc(C(F)(F)F)c3)C4)nc21 | > 100 µM

// recorded EC50 for `FC(F)(F)c1ncc(N2CC3(CCN(c4cncc(-c5nnc(C(F)(F)F)o5)n4)C3)C2)cn1` : 50 to 100 µM

// recorded EC50 for `CCn1c(=O)n(CC(F)F)c2nc(N3CCC4(CN(c5ccnc(C(F)(F)F)c5)C4)C3)cnc21` : < 10 µM

// recorded EC50 for `FC(F)Cn1ncc2ncc(N3CCC4(CCCN(c5ccc(C(F)(F)F)cn5)C4)CC3)nc21` : 10 to 50 µM

// recorded EC50 for `O=S(=O)(c1cccc(Cl)c1)N1CC2(CCN(c3cnc4cnn(CC(F)F)c4n3)C2)C1` : < 10 µM

// recorded EC50 for `Cc1nc(N2CCC3(CCN(c4cc5c(cn4)c(C)nn5CC(F)F)CC3)C2)cc(C(F)(F)F)n1` : 10 to 50 µM

// recorded EC50 for `O=C(c1ccccc1Cl)N1CC2(CCN(c3cnc4cnn(CC(F)F)c4n3)C2)C1` : < 10 µM

// recorded EC50 for `FC(F)Cn1ncc2ncc(N3CCC4(CC3)CN(c3ccc(C(F)(F)F)cn3)CCO4)nc21` : < 10 µM

// recorded EC50 for `Cc1ncc(N2CC3(CCN(c4ncc5c(C)nn(CC(F)F)c5n4)C3)C2)c(C(F)(F)F)n1` : < 10 µM

// recorded EC50 for O=C1N(c2ccc(C(F)(F)F)nc2)CCC12C1CCC2CN(c2cnc3cnn(CC(F)F)c3n2)C1 (stereo not shown) : < 10 µM

// recorded EC50 for `FC(F)Cn1ncc2ncc(N3CC4(CCN(c5cccc(C(F)(F)F)n5)C4)C3)nc21` : > 100 µM

// recorded EC50 for `O=C1N(c2cnc3cnn(CC(F)F)c3n2)CCC12CN(c1ccc(C(F)(F)F)nc1)C2` : 50 to 100 µM

// recorded EC50 for `COc1ncc(N2CCC3(CCN(c4cnc5cnn(CC(F)F)c5n4)CC3)C2)c(C(F)(F)F)n1` : 10 to 50 µM

---

# tested-target: GCase (Homo sapiens, UniProt P04062)
# Construct: endogenous in cells; host or cells: HeLa cells
# assay-remarks: activation of GCase in a live cell PFB assay in HELA cells
# Format: cell-based
# condition-details: activation of GCase, EC50 ranges
pEC50: −log10 of the molar value.
Entries and their measured pEC50 follow.

Below are worked cases with known answers.
FC(F)Cn1ncc2ccc(N3CCC4(CN(c5ccnc(C(F)(F)F)c5)C4)C3)nc21 | > 5.00
O=C1CC2(CCN(c3ccc(C(F)(F)F)cn3)C2)CN1c1cnc2cnn(CC(F)F)c2n1 (centres unmarked) | 4.30 to 5.00
O=S(=O)(c1cccc(F)c1)N1CC2(CCN(c3cnc4cnn(CC(F)F)c4n3)C2)C1 | > 5.00
O=C1C[C@@]2(CC3CCC2CN3c2cnc3cnn(CC(F)F)c3n2)CN1c1ccc(C(F)(F)F)cn1 (some centres unmarked) | > 5.00

// recorded pEC50 for FC(F)(F)c1ncc(N2CCC3(CCN(c4cnc5cnn(C6COC6)c5n4)C3)C2)cn1 (centres unmarked) : > 5.00

// recorded pEC50 for `O=C1CC2(CCN(c3ncc4cnn(CC(F)F)c4n3)CC2)CN1Cc1cnc(C(F)(F)F)nc1` : 4.00 to 4.30

// recorded pEC50 for `O=C1N(c2cnccc2C(F)(F)F)CCC12CCN(c1cnc3cnn(CC(F)F)c3n1)CC2` : 4.30 to 5.00

// recorded pEC50 for `Cc1nc(N2CC3(CCN(c4cnc5c(C)nn(C6COC6)c5n4)CC3)C2)cc(C(F)(F)F)n1` : 4.30 to 5.00
